TARGET_OR_TEST_SYSTEM: ERRα (Homo sapiens, UniProt P11474)
Sequence (P11474 whole entry, species assumed): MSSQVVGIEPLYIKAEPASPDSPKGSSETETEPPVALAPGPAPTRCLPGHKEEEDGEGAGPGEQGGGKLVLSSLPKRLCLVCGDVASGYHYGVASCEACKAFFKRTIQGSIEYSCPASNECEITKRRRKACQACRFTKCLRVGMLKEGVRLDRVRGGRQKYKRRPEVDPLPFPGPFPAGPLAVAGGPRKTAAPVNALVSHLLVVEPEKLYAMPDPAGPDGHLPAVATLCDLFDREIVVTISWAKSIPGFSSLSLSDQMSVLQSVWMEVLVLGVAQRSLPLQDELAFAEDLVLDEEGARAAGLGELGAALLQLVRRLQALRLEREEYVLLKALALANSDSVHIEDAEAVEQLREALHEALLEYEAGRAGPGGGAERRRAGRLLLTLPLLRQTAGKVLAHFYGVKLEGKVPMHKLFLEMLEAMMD
MEASUREMENT_DESCRIPTION: ERRE luciferase reporter assay in HEK293 cells transfected with pcDNA3.1 ERRα
CONDITION_SET: HEK293 cells transfected with ERRE reporter construct and pcDNA3.1 ERRα; compound for 24 hours; luciferase activity
pEC50: −log10 of the molar value.
PROPERTY: pEC50

{"columns": ["QUERY_SMILES", "DATA_VALUE"],
 "data": [
  ["COc1ccc(-c2nnc(-c3ccccc3)s2)c([N+](=O)[O-])c1", "> 6.00"],
  ["FC(F)(F)c1cccc(-c2nnc(-c3ccccn3)s2)c1", "> 6.00"],
  ["COc1cccc(-c2nnc(-c3ccccc3)o2)c1[N+](=O)[O-]", "> 6.00"],
  ["Cc1ccc(-c2nnc(-c3cccs3)o2)cc1", "> 6.00"],
  ["CC(C)(C)c1ccc(-c2nnc(-c3ccccc3[N+](=O)[O-])o2)cc1", "> 6.00"],
  ["O=[N+]([O-])c1ccccc1Cc1nnc(-c2ccc(C(F)(F)F)cc2)s1", "5.30 to 6.00"],
  ["FC(F)(F)c1ccc(-c2nnc(-c3ccccn3)s2)cc1", "> 6.00"],
  ["Cc1ccc(-c2nnc(-c3ccccc3Cl)o2)cc1", "> 6.00"],
  ["Cc1ccc(-c2nnc(-c3nccs3)s2)cc1", "> 6.00"],
  ["Cc1ccc(-c2nnc(-c3ccccc3[N+](=O)[O-])s2)cc1", "> 6.00"],
  ["FC(F)(F)c1ccc(-c2nnc(-c3ccccn3)o2)cc1", "> 6.00"],
  ["COc1ccc(-c2nnc(-c3ccc(Br)cc3)s2)cc1", "> 6.00"],
  ["FC(F)(F)c1ccc(-c2nnc(-c3ccnc4ccccc34)o2)cc1", "< 5.30"],
  ["Nc1cc(Br)ccc1-c1nnc(-c2ccccc2)o1", "> 6.00"],
  ["COc1ccc(-c2nnc(-c3ccc4ccccc4n3)o2)cc1", "> 6.00"],
  ["FC(F)(F)c1ccc(-c2nnc(-c3cccc4ncccc34)s2)cc1", "> 6.00"],
  ["Cc1ccc(-c2nnc(-c3ccnc4ccccc34)s2)cc1", "> 6.00"],
  ["Cc1cccc(-c2nnc(-c3ccccc3)o2)c1[N+](=O)[O-]", "> 6.00"],
  ["COc1ccc(-c2nnc(-c3ccccc3Cl)s2)cc1", "> 6.00"],
  ["Cc1ccc(-c2nnc(-c3ccc4ccccc4c3)s2)cc1", "< 5.30"]
]}
